// reported IC50 for each item listed
target: Human CARM1 (PRMT4) (Homo sapiens (Human)); assay: CARM1 enzyme assay on peptide substrate (3H-SAM Flashplate); details: Biochemical potencies, classification codes; read-out: Biochem IC50
Sequence (Q86X55 other isoform, or with tags, fused parts or gaps isoform Q86X55-1): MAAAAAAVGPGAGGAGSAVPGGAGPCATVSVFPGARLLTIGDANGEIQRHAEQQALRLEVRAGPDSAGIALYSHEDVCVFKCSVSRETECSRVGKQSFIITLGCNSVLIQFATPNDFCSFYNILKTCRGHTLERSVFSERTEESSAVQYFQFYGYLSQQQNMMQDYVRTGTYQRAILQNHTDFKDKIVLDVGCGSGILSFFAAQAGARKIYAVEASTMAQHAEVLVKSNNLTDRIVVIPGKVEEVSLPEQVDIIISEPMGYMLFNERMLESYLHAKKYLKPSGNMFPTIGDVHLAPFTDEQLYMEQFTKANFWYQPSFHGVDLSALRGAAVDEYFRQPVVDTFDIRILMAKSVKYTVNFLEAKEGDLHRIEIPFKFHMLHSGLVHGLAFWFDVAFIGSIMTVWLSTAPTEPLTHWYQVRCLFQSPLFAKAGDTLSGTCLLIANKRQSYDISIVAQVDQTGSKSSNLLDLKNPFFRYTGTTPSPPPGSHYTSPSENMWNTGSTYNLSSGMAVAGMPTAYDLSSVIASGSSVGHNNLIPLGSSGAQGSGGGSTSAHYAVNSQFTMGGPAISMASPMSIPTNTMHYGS

molecule="CCOC(=O)N1CCC2(CC1)CN(c1nc(-c3cc(OC[C@H](O)CNC)ccc3Cl)nc(-c3c(C)noc3C)c1C)C2 [Example 285-3]" result="< 100 nM"
molecule="CNCC(O)COc1cccc(-c2nc(N[C@@H]3CCOC3)c(C)c(-c3c(C)noc3C)n2)c1 (stereo partly shown) [Example 66-1a]" result="< 100 nM"
molecule="CNC[C@@H](O)COc1ccc(Cl)c(-c2nc(-c3c(C)noc3C)c(C)c(N3CCOC3=O)n2)c1 [Example 187-3]" result="< 100 nM"
molecule="CNC[C@@H](O)COc1cccc(-c2nc(-c3cn(S(C)(=O)=O)c4ncncc34)c(C)c(N(C)C3CCOCC3)n2)c1 [Example 488-1a]" result="< 100 nM"
molecule="CNCC(O)COc1cc(N)cc(-c2nc(NC3CCOCC3)c(C)c(-c3c(C)noc3C)n2)c1 (stereo not shown) [Example 74-1a]" result="< 100 nM"
molecule="CNC[C@H](O)COc1ccc(Cl)c(-c2nc(-c3c(C)noc3C)c(C)c(N(C)[C@H]3C[C@@](C)(OC)C3)n2)c1 [Example 95-3]" result="< 100 nM"

Next up:
In plain terms, CNC[C@@H](O)COc1ccc(Cl)c(-c2nc(NC[C@H]3CCCO3)c(C)c(-c3c(C)noc3C)n2)c1 [Example 130-3] has a documented IC50 of < 100 nM
